Molecular target: T1, AAV9 (adeno-associated virus 9)
T1 construct: also called adeno-associated virus serotype 9
Assay: SPR, AAV amine-coupled to CM5 chip;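 also: nanobodies flowed as analyte at seven concentrations spanning 1–100 nM over immobilized AAV (500–800 RU), kinetic constants derived by fitting the binding curves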
Measure: Kd (nM)

>>> val("A4-097 (VHH) VHH: VQLQESGGGLVQPGGSLRLSCIASGSIFSANTMGWYRQAPGKQRELVATITRGGNTNYGDSVKGRFTISRDNAKNTVYLQMNTLRPEDTAVYYCHVDEIRESSWTTSNLWGQGTQVTVSS")
62.3
>>> val("A4-086 (VHH) VHH: VQLQESGGGLVQPGGSLRLSCAASGSRFSLNTMGWYRQAPGKQRELVAAVTRGGNTNYADFVKGRFTISRDNAKNTVYLQMNSLRPEDTAVYYCHVDELRESSWTTSNLWGQGTQVTVSS")
1.45
>>> val("A4-098 (VHH) VHH: VQLQESGGGLVQPGGSLRLSCIASGSIFSINTMGWYRQAPGKQRELVATITRGGNTNYGDSVKGRFTISRDNAKNTVYLQMNTLRPEDTAVYYCHVDEIRESSWTTSNLWGQGTQVTVSS")
82.2
>>> val("A4-078 (VHH) VHH: VQLQESGGGLVQPGGSLRLSCLASGTMFSLNTMGWYRQAPGKQRELVATVTRGGSTNYADFVKGRFTISRDNAKNTVYLQMNSLRPEDTAVYYCHVDEVRDSSWTTSNLWGQGTQVTVSS")
215
>>> val("A4-052 (VHH) VHH: VQLQESGGGLVQPGGSLRLSCAASGSIFIINTMGWYRQAPGKQRELVAAVTRGGSTNYADSVKGRFTISRDNAKNTVYLQMNSLRPEDTAVYYCHVDEVRQSSWTTSNLWGQGTQVTVSS")
7.38
>>> val("A4-096 (VHH) VHH: VQLQESGGGLVQPGGSLRLSCIASGSSFSANTMGWYRQAPGKQRELVATITRGGNTNYGDSVKGRFTISRDNAKNTVYLQMNSLRPEDTAVYYCHIDEIRESTWTTSNLWGQGTQVTVSS")
5.14
>>> val("A4-100 (VHH) VHH: VQLQESGGGLVQPGGSLRLSCAASGSIFVINTMGWYRQAPGKQRELVASLTRGGSTNYADSVKGRFTISRDNDKNTIYLQMNSLRPEDTAVYYCHVDEVRESTWTTSNIWGQGTQVTVSS")
7.64
>>> val("A4-081 (VHH) VHH: VQLQESGGGLVQPGGSLRLSCAASGSRFSLNTMGWYRQAPGKQRELVATVTRGGSTNYADSVKGRFTISRDNAKNTVYLQMNSLRPEDTAVYYCHVDELRESGWTTSNLWGQGTQVTVSS")
13.7
>>> val("A4-077 (VHH) VHH: VQLQESGGGLVQPGGSLRLSCAASGSMFSINIMGWYRQAPGKQREFVATITRGGSTNYADFVKGRFTISRDNAKNTVYLQMNSLRPEDTAVYYCHVDELRDSSWTTSNLWGQGTQVTVSS")
1.87
>>> val("A4-053 (VHH) VHH: VQLQESGGGLVQPGGSLRLSCAASGSIFIINTMGWYRRAPGKQRELVAAVTRGGSTNYADSVKGRFTISRDNAKNTVYLQMNSLRPEDTAVYYCHVDEVRQSSWTTSNLWGQGTQVTVSS")
2.6
>>> val("A4-087 (VHH) VHH: VQLQESGGGLVQPGGSLRLSCAASGSRFSLNTMGWYRQAPGKQRELVAAVTRGGNTNYGDFVKGRFTISRDNAKNTVYLQMNSLRPEDTAVYYCHVDELRESSWTTSNLWGQGTQVTVSS")
4.13
>>> val("A4-073 (VHH) VHH: VQLQESGGGLVQPGGSLRLSCAASGSNFSINTMGWYRQAPGKQREMVATVTRGGSTNYGDFVKGRFTISRDNAKNTVYLQMNSLRPEDTAVYYCHVDEIRQSSWTTSNIWGQGTQVTVSS")
1880
>>> val("A4-067 (VHH) VHH: VQLQESGGGLVQTGGSLRLSCAASGRAFSLNTMGWYRQAPGKWRELVATVTRGGSTNYAGSVKGRFTISRDNTKNTVYLQMNNLRPEDTAVYYCHVDEVRESSWTTSNLWGQGTQVTVSS")
106
>>> val("A4-091 (VHH) VHH: VQLQESGGGLVQPGGSLRLSCAASGSRFSINTMGWYRQRAGKQRELVATVTRDGSTTYANSVKGRFTISRDNAKNTVYLQMNSLRPEDTAVYYCHVDELRQSTWTTSNLWGQGTQVTVSS")
34.5
>>> val("A4-093 (VHH) VHH: VQLQESGGGLVQTGGSLRLSCAASGSIFIINTMGWYRQRAGKQRELVATVTRGGSTNYADSVKGRFTISRDNAKNTVYLQMNTLRPEDTAVYYCHVDELRQSSWTTSNLWGQGTQVTVSS")
15.5
